All values here come from PubChem BioAssay (NCI).

System: SK-MEL-2 melanoma
Assay Remarks: NCI-60 one-dose screen, 48 h (100 = growth as untreated, 0 = no growth, -100 = all killed)
Test Conditions: 10 µM unless noted
Experimental: Growth inhibition of the SK-MEL-2 human tumor cell line is measured as a screen for anti-cancer activity. Cells are grown in 96 well plates and exposed to the test compound for 48 hours. Compounds are tested at a single concentration, which is 10^-5 M for most compounds. The reported endpoint is percent growth (GI% or GIPRCNT), where numbers from 0 - 100% represent growth inhibition, and numbers from -100% - 0 represent cell death. For example, a value of 40 represents 60% growth inhibition. […]
Compounds without any hit were thinned out: in the full panel of roughly 83,000, 20% have a hit. Active and inactive are the calls of the source. The calls were made as follows: active = growth percent below 10; inactive = the rest.
Catalogue of growth readings, one per entry.

CCC(C)(C)C(=O)O[C@H]1C[C@@H](C)C=C2C=C[C@H](C)[C@H](CC[C@@H]3C[C@@H](O)CC(=O)O3)[C@H]21 :: 26.3% (inactive)
CCC1=C(c2ccc(OC)cc2)C(C)(C)Oc2cc(O)c(CN3CCCC3)cc21 :: 86.3% (inactive)
O=C1CCCN1C1CCN(Cc2cc3ccccc3[nH]c2=O)c2ccccc21 (stereo unspecified) :: 96.1% (inactive)
COc1ccc(Nc2ccnc(NCCCNc3ccnc4cc(Cl)ccc34)n2)cc1 :: -86.4% (active)
NC(=O)N/N=C/c1ccc(Br)o1 :: 99.6% (inactive)

Consider now this further compound.
Ask: // lookup growth for "O=C1NCN(CCO)CN1"
Reply: 108% (inactive)

###

Listing of recorded growth by entry.
Tested on: PC-3 prostate
Assay Remarks: NCI-60 one-dose screen, 48 h (100 = growth as untreated, 0 = no growth, -100 = all killed)
Test Conditions: 10 µM unless noted
Compounds without any hit were thinned out: in the full panel of roughly 83,000, 20% have a hit. The source made the active and inactive calls. The calls were made as follows: active = growth percent below 10; inactive = the rest.

Check out these entries, answers already filled in.
c1ccc(N2CCN(c3nncc4ccccc34)CC2)nc1 :: 101% (inactive)
COc1cccc2c1C(=O)c1c(O)c3c(c(O)c1C2=O)C[C@@](O)(/C(C)=N/NC(=O)c1cccc([N+](=O)[O-])c1)C[C@@H]3OC1CC(N)C(O)C(C)O1 (stereo not given in full) :: -35% (active)
COc1ccc(/C(=C2\O[C@@H]([C@H](O)CO)[C@H]3OC(C)(C)O[C@@H]23)c2cc(OC)c(OC)c(OC)c2)cc1O :: 51.8% (inactive)
C=Cc1nn2c(CCC(=O)c3nc4ccccc4[nH]3)nnc2s1 :: 98% (inactive)

Ask: Would you mind telling me what growth value was observed for "CCCn1cnc2c1c(=O)n(CCCCC(C)=O)c(=O)n2C" ?
Reply: 99.2% (inactive)

Ask: Same again, this time with "CCN(CC)CCNc1ccc(Cl)cc1Cl"
Reply: 97.3% (inactive)

Ask: Entry "COc1ccc(-c2csc(NC(=O)c3cc(O)c(O)c(O)c3)n2)cc1" please
Reply: 68.4% (inactive)

###

Test system: HOP-62 NSCLC
Assay Remarks: NCI-60 one-dose screen, 48 h
Test Conditions: 10 µM unless noted
Compounds without any hit were thinned out: in the full panel of roughly 83,000, 20% have a hit. The source made the active and inactive calls. Rule for the calls: active = growth percent below 10; inactive = the rest.
Choose one outcome from this list and give only that: TRUE = active, FALSE = inactive

ClC1=C(Cl)C(=C2C(Cl)=C(Cl)C(Cl)=C2Cl)C(Cl)=C1Cl :: FALSE

Ask: # lookup: test call for "Cc1ccc(C(C)C)cc1NC(=O)Nc1ccc([N+](=O)[O-])cc1"
Reply: TRUE

Ask: Another compound to check: "COc1ccc2c(c1)nc(N)c1c3cc(C)c(C)cc3cn21"
Reply: FALSE

###

System: MDA-MB-435 melanoma
Assay Remarks: NCI-60 one-dose screen, 48 h (100 = growth as untreated, 0 = no growth, -100 = all killed)
Test Conditions: 10 µM unless noted
Experimental: Growth inhibition of the MDA-MB-435 human Melanoma tumor cell line is measured as a screen for anti-cancer activity. Cells are grown in 96 well plates and exposed to the test compound for 48 hours. Compounds are tested at a single concentration, which is 10^-5 M for most compounds. The reported endpoint is percent growth (GI% or GIPRCNT), where numbers from 0 - 100% represent growth inhibition, and numbers from -100% - 0 represent cell death. […]
This is part of a sample that, as a whole, favours compounds with a hit. Of some 83,000 tested, about 20% had one in any assay. Calls of active or inactive are those of the source. Rule for the calls: active = growth percent below 10; inactive = the rest.
Item-by-item account of growth

Example compounds with recorded growth:
CCCC[N+](CCCC)=c1ccc2nc3c(C)cc(N(CC)CC)cc3sc-2c1 :: -88.1% (active)
CCCc1nn(C)c2c(=O)[nH]c(-c3cc(S(=O)(=O)N4CCN(C)CC4)ccc3OCC)nc12 :: 100% (inactive)
CCC1=C(c2ccc(OC)cc2)C(C)(C)Oc2cc(O)c(CN3CCCC3)cc21 :: 70.9% (inactive)
O=C(Nc1ccc(Oc2ccc(NC(=O)Nc3ccc([N+](=O)[O-])cc3)cc2)cc1)Nc1ccc([N+](=O)[O-])cc1 :: 5.67% (active)

Now, please, on to the next compound.
Ask: Reported growth for "COc1ccc(OC)c(NC(=O)c2cc3oc4ccccc4c3cc2O)c1" : what is it?
Reply: 105% (inactive)

###

Test system: HOP-62 NSCLC
Assay Remarks: NCI-60 one-dose screen, 48 h (100 = growth as untreated, 0 = no growth, -100 = all killed)
Test Conditions: 10 µM unless noted
Compounds without any hit were thinned out: in the full panel of roughly 83,000, 20% have a hit.
Value Kind: growth (%)
Numeric answer only, unit % assumed.

For orientation, consider the following solved cases.
COc1ccc2[nH]cc(/C=C3/C(=O)Nc4ccc(F)cc43)c2c1 :: 105
NNC(=O)C1CC2c3ccccc3C1c1ccccc12 (stereo not given) :: 112
Cc1cccc(Cl)c1NC(=O)c1ccc2nc(NC(=O)NC3CC(C)(C)NC(C)(C)C3)sc2c1 :: 68.3

Ask: Could you share which growth value was measured for "COc1cc2c(cc1OCCCCCn1c(-c3ccc(OCc4ccccc4)cc3)nc3cc(N4CCOCC4)ccc31)N=C[C@@H]1CCCN1C2=O" ?
Reply: 20

Ask: Same read-out for COC1CC2CCC(C)C(O)(O2)C(=O)C(=O)N2CCCCC2C(=O)OC(C(C)CC2CCC(O)C(OC)C2)CC(=O)C(C)C=C(C)C(O)C(OC)C(=O)C(C)CC(C)/C=C/C=C/C=C1C (stereo not given) ?
Reply: 51.3

Ask: O=c1ccn(C2OC(CO)C(O)C2F)c(=O)[nH]1 (stereo not given) , same question.
Reply: 103

Ask: Also check "Oc1ccccc1/C=N\Nc1ccccc1"
Reply: 65.6

Ask: Record: "Cc1cc(N2CCOCC2)nc(N2CCOCC2)n1"
Reply: 82.2

Ask: And "O=C(/C=C/c1cc2ccccc2[nH]c1=O)c1ccc(Cl)cc1" ?
Reply: 44.4

Ask: What would you report for "O=C1NCN(c2ccccc2)C12CCN(CCCC(c1ccc(F)cc1)c1ccc(F)cc1)CC2" ?
Reply: 82.9

###

Tested on: CCRF-CEM leukemia
Assay Remarks: NCI-60 one-dose screen, 48 h
Test Conditions: 10 µM unless noted
Procedure: Growth inhibition of the CCRF-CEM human tumor cell line is measured as a screen for anti-cancer activity. Cells are grown in 96 well plates and exposed to the test compound for 48 hours. Compounds are tested at a single concentration, which is 10^-5 M for most compounds. The reported endpoint is percent growth (GI% or GIPRCNT), where numbers from 0 - 100% represent growth inhibition, and numbers from -100% - 0 represent cell death. For example, a value of 40 represents 60% growth inhibition. […]
About 83,000 compounds went through this panel and 20% of them were active in at least one assay; those are over-represented in the sample as a whole. Activity calls are given as the source filed them. Rule for the calls: active = growth percent below 10; inactive = the rest.
// allowed return values: active, inactive

Examples with answers:
CCCCCCCCCCCCCCCCCc1nccn1CCO :: inactive
COc1cc(/C=C2\COc3ccc(O)c(O)c3C2=O)cc(OC)c1 :: active
CCOC(=O)c1c(NC(=O)C2CCCCC2C(=O)O)sc2c1CCCC2 (stereo not given) :: inactive
NC(=O)c1ncn([C@@H]2O[C@H](CO)[C@@H](O)[C@H]2O)n1 :: inactive
COc1cc(C2CC(c3ccc(C)cc3)=NN2C(C)=O)ccc1Oc1ccnc2cc(Cl)ccc12 (stereo not given) :: inactive

Ask: Called result for "N=c1ccn2c(n1)O[C@@H]1[C@@H](O)[C@H](CO)O[C@@H]12"
Reply: inactive

Ask: Here is the next compound: COc1ccc(C2CC(c3cccc(Nc4ccnc5cc(Cl)ccc45)c3)=NN2C=O)cc1 (stereo not given)
Reply: active

Ask: // same read-out, input: "CC(C)c1ccc(C(=O)Nc2sc3c(CN(C)C)c(O)ccc3c2C(N)=O)cc1"
Reply: active

Ask: Next up: "COc1ccc(-c2c(N)noc2-c2cc(OC)c3c(c2)OCCO3)cc1"
Reply: inactive

Ask: Ok, now "CCCn1cnc2c1c(=O)n(CCCCC(C)=O)c(=O)n2C"
Reply: inactive
